Data credit: patent US20250027068

target: pooled human IgG (human IgG1, 2, 3 and 4)
readout type: Enzyme Activity Endpoint Assay: scIgG (ng/µL)
Please respond with the number in ng/µL and leave the unit unwritten.

Exam item: # lookup: Enzyme Activity Endpoint Assay: scIgG of PRT-556 (protein) MANQEIRYSKAKPKVITSVWTKGVTPPTQFTYNEDVFHAPYLPNQGWYDITKTFNGKDDLLCGAATAGNMLHWWFDQNKEQIERYLKEHPEKQKINFNGEQMFDVKEAIDTKDSQTNSKLFNYFKDKAFPYLSTKHLGVFPDHVIDMFINGYRLSLTNHGPTPVKEQNKDPRGGIFDDVFTRGDQSKLLTSRHDFKEKTLKEISDLIKQELKEGKALGLSHTYANVRINHVINLWGADFDAEGNLVAIYVTDSDSNASIGMKKYYVGVNSAGKVAISAKEIEDDNIGAQVLGLFTLSTGKDIWEKTNLEHHHHHH
Marked response: 200
